molecular target: AA; experiment: luminescence complementation; conditions: chains peptide; modification not given
measured attribute: Kd
Answers without a unit are incomplete; give the number and then its unit.

Using the record for SGWRLFKKISN [NLpep81] , state its measured Kd.
115 nM
